Provide the reported GI50 of each item.
# System: W2-strain P. falciparum parasites
# Assay Method Text: P. falciparum growth inhibition assay
# Assay type: cell-based, Plasmodium falciparum
# Test Context: Plasmodium falciparum; cultured W2 strain, 48 hours; read-out: GI50 P. falc. W2
One number for each entry, in nM.

| Compound | Endpoint | Unit String | Test Value |
| --- | --- | --- | --- |
| CC(C)CC(NC(=O)N1CCOCC1)C(=O)NC(C=CS(=O)(=O)c1ccccc1)CCc1ccc(O)cc1 (stereo not drawn) [Compound 18a] | GI50 | nM | 20 |
| CCCCC(NC(=O)C(CC(C)C)NC(=O)N1CCOCC1)C(=O)c1nc2ccccc2o1 (stereo not drawn) [Compound 19a] | GI50 | nM | 1200 |

Provide reported GI50 for each item, in the same order as listed.
1. N#CC1(NC(=O)C(CC2CCCCC2)NC(=O)c2cccc(-c3cccc(S(N)(=O)=O)c3)c2)CCS(=O)(=O)CC1 (stereo not drawn) [Compound 20]
2. CCCCC(NC(=O)C(CC(C)C)NC(C)=O)C(=O)c1nc2ccccc2o1 (stereo not drawn) [Compound 19c]
3. CCCCC(NC(=O)C(Cc1ccccc1)NC(=O)N1CCOCC1)C(=O)c1nc2ccccc2o1 (stereo not drawn) [Compound 19b]
4. CC(C)CC(NC(c1ccc(-c2ccc(S(C)(=O)=O)cc2)cc1)c1nccs1)C(=O)NC1(C#N)CC1 (stereo not drawn) [Compound 21]

# output
[170, 4800, 2900, 870]
